# melting point values compiled below

Please review the following examples before continuing.
{"molecule": "CC(C)(C)[C@H]1CC[C@@H](Nc2ncnc(I)c2Cl)CC1", "melting point": "89 to 90 °C"}
{"molecule": "CCCc1cccnc1N", "melting point": "25 to 27 °C"}
{"molecule": "Cc1c(NC(=O)c2ccc(OC[C@@H]3CCCO3)cc2F)ccc2cc(CNCC(C)(C)O)n(C)c12", "melting point": "132 to 133 °C"}
{"molecule": "N#CC1=C(c2ccccc2)Nc2n[nH]cc2C1c1cccc(Cl)c1Cl (configuration not stated)", "melting point": "162 °C"}
{"molecule": "O=C1CCCc2ccc([N+](=O)[O-])cc21", "melting point": "104 to 105 °C"}

Which measured melting point value corresponds to COc1ccc(-c2cc(Cl)c3cc(O)ccc3c2)cc1 ? 116 to 118 °C

Also need O=C1c2cccnc2N(N2CCOCC2)C2=NCCN12 , thanks. 225 to 226 °C

Also need Cn1c(C(F)(F)F)ccc(-c2cc(S(C)(=O)=O)c(Cl)cc2F)c1=O , thanks. 144 to 145 °C

Also need O=C(O)C1=Cc2cc(Cl)cc(COCc3ccccc3)c2OC1C(F)(F)F (configuration not stated) , thanks. 134 to 135 °C

###

# melting point values compiled below

Please review the following examples before continuing.
{"compound": "OC(c1nccs1)(c1nccs1)C(F)(F)F", "melting point": "113 to 115 °C"}
{"compound": "CC(C)n1nc(-c2c(NC3CC3)nc(N)nc2-c2ccccc2)ccc1=O", "melting point": "237 to 239 °C"}
{"compound": "N#Cc1ccccc1Sc1ccccc1[N+](=O)[O-]", "melting point": "166 to 167 °C"}
{"compound": "COc1ccc(-c2cc(-c3ccccc3)nc(C)c2C(=O)Cl)cc1OC", "melting point": "140 °C"}
{"compound": "CN(c1cccc2cc(C3=NCC(C)(CCO)S3)[nH]c12)S(=O)(=O)c1cccs1 (stereo unspecified)", "melting point": "149 to 150 °C"}

Which measured melting point value corresponds to CC#CCOc1ccc(OCC(=O)NO)cc1 ? 100 to 105 °C

Also need CC(C)COCCOc1ccc(OCC(O)CNCCNC(=O)N(C)C)cc1 (stereo unspecified) , thanks. 75 °C

Also need CCc1c2ccccc2nc2c1c(C)nn2-c1ccccn1 , thanks. 112 to 114 °C

Also need CNC(=O)c1cc(SC)cc(N)n1 , thanks. 89 to 91 °C

Also need CC1=C(c2ccc(Cl)cc2)n2ncc(C(N)=O)c2NC1 , thanks. 210 to 212 °C

Also need O=[N+]([O-])c1ccc2sc(-c3cccnc3)nc2c1 , thanks. 196 to 198 °C

###

# melting point values compiled below

{"molecule": "CC1(C)CC(c2ccccn2)c2cc(C(N)=O)ccc2O1 (stereo not given)", "assay-metric": "melting point", "measurement": "96 to 98 °C"}
{"molecule": "COc1ccc(C(=O)N2CCN(c3c(C)c(C)c4c(c3C)C(c3ccc(C)cc3)C(C)(C)O4)CC2)cc1 (stereo not given)", "assay-metric": "melting point", "measurement": "163 to 165 °C"}
{"molecule": "COc1ccc(Cn2c3ncnc4c(ncn4Cc4ccc(OC)cc4)c-3nc2=O)cc1", "assay-metric": "melting point", "measurement": "175 to 177 °C"}
{"molecule": "Fc1ccccc1NC(=S)NCc1ccncc1", "assay-metric": "melting point", "measurement": "145 °C"}

Switching to the query record.
Which measured melting point value corresponds to CC(C1=NC(C)(C)CO1)c1ccc(-c2ccc(F)cc2F)c(O)c1 (stereo not given) ? 188 to 194 °C

###

assay-metric: melting point

Please review the following examples before continuing.
{"compound": "OCCOCc1c(Br)c(Br)c(COCCO)c(Br)c1Br", "measurement": "145 to 147 °C"}
{"compound": "N#CC1CN1C(=O)NC(=O)C1CCCCC1 (stereo not given)", "measurement": "142 to 144 °C"}
{"compound": "CCOC(=O)c1cn2c3c(c(F)c(F)cc3c1=O)OCC21CCC1", "measurement": "255 to 256 °C"}
{"compound": "c1cc(-n2ccnc2)cc(-n2cnc3cc(-c4ccco4)ccc32)c1", "measurement": "175 to 177 °C"}

Which measured melting point value corresponds to CCOC(=O)CC(C(=O)c1ccc(OC2CCN(C(=O)OC(C)(C)C)CC2)cc1)c1ccccn1 (stereo not given) ? 118 to 120 °C

Also need Cc1cn(-c2ccc(N)c(C(F)(F)F)c2)c(C)n1 , thanks. 126 to 127 °C

Also need O=c1n(CCCC2CCCCC2)ccn1-c1ccc([N+](=O)[O-])cc1 , thanks. 153 to 156 °C

Also need OC(c1ccccc1)(c1cccc(C(F)(F)F)c1)N1CCCCC1 (stereo not given) , thanks. 97 to 100 °C

Also need CC(=O)c1c(Cl)cccc1N1CCN(CCCCOc2ccc3c(n2)NC(=O)CC3)CC1 , thanks. 115 °C

Also need CC(C)NC(=Nc1ccc(Cl)cc1)Nc1ncccc1OCc1c(F)cccc1F , thanks. 112 to 113 °C

###

# melting point values compiled below

{"compound": "C#CC(C)(C)c1cc(N)no1", "melting point": "98 to 100 °C"}
{"compound": "CNc1c(F)c(O)c2c(=O)c(C(=O)O)cn(-c3cc(N)c(F)cc3F)c2c1C", "melting point": "> 280 °C"}
{"compound": "COc1cc2c(ccn2S(C)(=O)=O)cc1Br", "melting point": "126 to 129 °C"}

Which measured melting point value corresponds to CCOC(=O)c1cc2c(s1)-n1c(C)nnc1CN=C2c1ccccc1Cl ? 148 to 150 °C

Also need CCN(CC)C(=O)c1cc2ccccc2[nH]1 , thanks. 108 to 110 °C

Also need CNC(=O)c1cccc(-c2ccc(OC(C)C(O)CCc3cccnc3)cc2)c1 (stereo not drawn) , thanks. 54 to 55 °C

Also need Cn1c(=O)cc(C(N)=S)c2cc(C(=O)c3ccc(Cl)cc3)ccc21 , thanks. 210 °C

Also need O=c1[nH]c(=O)n(CCO)c2ccccc12 , thanks. 274 °C

###

assay-metric: melting point

Please review the following examples before continuing.
{"compound": "O=C1N(Cc2ncon2)c2ccccc2C12COc1cc3c(cc12)OCO3 (stereo not given)", "melting point": "160 to 162 °C"}
{"compound": "CCC(C)(C)Nc1c(N(Cc2ccc(C#N)cc2Cl)C(C)=O)c(=O)c1=O", "melting point": "150 to 151 °C"}
{"compound": "CCCCc1nc2c(N)nc3ccccc3c2n1CCN1C(=N)NC2CSC(CCCCC(N)=O)C21 (stereo not given)", "melting point": "95 to 96 °C"}
{"compound": "CCNC(=O)N(CCO)Cc1cc([N+](=O)[O-])ccc1OC", "melting point": "93 to 94 °C"}
{"compound": "O=C1NC(=O)c2ccccc2/C1=C/Nc1ccc2ncccc2c1", "melting point": "277 to 278 °C"}
{"compound": "Nc1ccc2c(c1)N(C1CCN(CCc3ccc(F)cc3)CC1)CC2", "melting point": "104 to 106 °C"}
{"compound": "Cc1c(/C=C/C(=O)c2cn(C)c3ccccc23)ncn1C(c1ccccc1)(c1ccccc1)c1ccccc1", "melting point": "216 to 219 °C"}
{"compound": "COc1ccc2c(=O)c(S(C)(=O)=O)cn(C)c2c1", "melting point": "212 to 214 °C"}
{"compound": "CCCn1nc2c(N)nc3ccccc3c2c1CC(C)(C)NC(=O)c1ccncc1", "melting point": "148 to 150 °C"}

Switching to the query record.
Which measured melting point value corresponds to COc1ccc(C2(O)CCSCC2)cc1OC1CCCC1 ? 83 to 85 °C

###

# melting point values compiled below

Which measured melting point value corresponds to CCOC(=O)NC(=O)c1c(Cl)ccc2c(C(F)(F)F)c(OC)ccc12 ? 169 to 171 °C

Also need CC(C)n1nc(-c2sc(N)nc2-c2ccccc2)ccc1=O , thanks. > 250 °C

Also need O=[N+]([O-])c1ccc(OC2(c3ccccc3)CCN(Cc3ccccc3)CC2)cc1 , thanks. 135 to 137 °C

Also need CCN(Cc1cccnc1)C(=S)NC , thanks. 122 to 123 °C

Also need COc1ccc(C(=O)OC2C=C(C)C(=O)CC(C)(C)C2O)cc1 (stereo unspecified) , thanks. 108 to 110 °C

Also need OC(Cc1ccncc1)(c1ccccc1)c1ccccc1 , thanks. 154 to 155 °C

###

# melting point values compiled below
Could you give me the number in °C? Just the number is fine.

Please review the following examples before continuing.
{"molecule": "N#Cc1ccc(-c2ccc(O)c(C=O)c2)cc1", "melting point, °C": 144}
{"molecule": "CC(=O)Nc1ccc(O)c(CN2CCC(NC(=O)c3ccccc3)CC2)c1", "melting point, °C": 242}
{"molecule": "CC#CCOc1ccc(C(=O)NC[C@@H](C(=O)NO)N2CCN(S(C)(=O)=O)CC2)cc1", "melting point, °C": 127}

Which measured melting point value corresponds to c1cc(C2CCC(c3ccc(OCC4CO4)cc3)CC2)ccc1OCC1CO1 (stereo not given) ? 154
